- Test system: NCI-H2085 (Non-Small Cell Lung Carcinoma)
- Assay text: Bliss excess, mean over the matrix (fraction); higher = more synergy
Measured property: Bliss excess
Answer with a number only.

These recorded examples may help you get a feel for the data.
[[record]]
molecule = "NC1(C(=O)N[C@@H](CCO)c2ccc(Cl)cc2)CCN(c2ncnc3[nH]ccc23)CC1 [Capivasertib] + CC(=O)c1c(C)c2cnc(Nc3ccc(N4CCNCC4)cn3)nc2n(C2CCCC2)c1=O [Palbociclib] (first compound max 10 µM, 7x7, partner max 10 µM)"
measurement_target = "NCI-H2085 (Non-Small Cell Lung Carcinoma)"
measured_number = -0.0561

[[record]]
molecule = "C=CCn1c(=O)c2cnc(Nc3ccc(N4CCN(C)CC4)cc3)nc2n1-c1cccc(C(C)(C)O)n1 [AZD1775] + O=C(c1cc(Cc2n[nH]c(=O)c3ccccc23)ccc1F)N1CCN(C(=O)C2CC2)CC1 [Olaparib] (first compound max 1 µM, partner max 10 µM)"
measurement_target = "NCI-H2085 (Non-Small Cell Lung Carcinoma)"
measured_number = -0.0353


Record COc1cccc2c1C(=O)c1c(O)c3c(c(O)c1C2=O)C[C@@](O)(C(=O)CO)C[C@@H]3O[C@H]1C[C@H](N)[C@H](O)[C@H](C)O1 [Doxorubicin] + Cc1cc2ncnn2cc1Nc1ncc2c(n1)n(C1CCOCC1)c(=O)n2C [AZD7648] (first compound max 1 µM, 7x7, partner max 10 µM) . Reported Bliss excess: 0.0299

---

- System: LU-135 (Small Cell Lung Carcinoma)
- Assay text: combination Emax (second highest fraction inhibited in the dose matrix, 72 h); higher = more inhibition; extreme values may be limits of the assay
Decision: combination Emax compared against 0.6; not below it gives 1.0, below it gives 0.0.

Worked examples follow.
[[record]]
compound = "COc1nnc2ccc(N3CCC(c4ccc(OCCN5CCN(C)C(=O)[C@H]5C)cc4)CC3)nn12 [AZD5153] + Cn1cnc2c(F)c(Nc3ccc(Br)cc3Cl)c(C(=O)NOCCO)cc21 [Selumetinib] (first compound max 1 µM, 7x7, partner max 10 µM)"
measurement_target = "LU-135 (Small Cell Lung Carcinoma)"
group_label = 1.0

[[record]]
compound = "CN(CCO)CC[C@H](CSc1ccccc1)Nc1ccc(S(=O)(=O)NC(=O)c2ccc(N3CCC([C@@H](O)c4ccccc4-c4ccc(Cl)cc4)CC3)cc2)cc1S(=O)(=O)C(F)(F)F [AZD4320] + Cc1cc2ncnn2cc1Nc1ncc2c(n1)n(C1CCOCC1)c(=O)n2C [AZD7648] (first compound max 1 µM, 7x7, partner max 10 µM)"
measurement_target = "LU-135 (Small Cell Lung Carcinoma)"
group_label = 1.0


API: above_or_equal(metric=combination Emax, cutoff=0.6) for item Cc1c2c(nn1C)CSCc1cc(n(C)n1)CSc1cc(c3ccccc3c1)OCCCc1c(C(=O)O)n(C)c3c-2c(Cl)ccc13 [AZD5991] + CN(C)CCCOc1ccc(-c2ccc3ncc4c(c3c2)n(C2CCOCC2)c(=O)n4C)cn1 [AZD0156] (first compound max 1 µM, 7x7, partner max 1 µM)
0.0

API: above_or_equal(metric=combination Emax, cutoff=0.6) for item CN(C)CCCOc1ccc(-c2ccc3ncc4c(c3c2)n(C2CCOCC2)c(=O)n4C)cn1 [AZD0156] + CCN(CCO)CCCOc1ccc2c(Nc3cc(CC(=O)Nc4cccc(F)c4)[nH]n3)ncnc2c1 [AZD2811] (first compound max 1 µM, 7x7, partner max 1 µM)
1.0

API: above_or_equal(metric=combination Emax, cutoff=0.6) for item NC1(C(=O)N[C@@H](CCO)c2ccc(Cl)cc2)CCN(c2ncnc3[nH]ccc23)CC1 [Capivasertib] + CC(C)n1c(=O)n(C)c2cnc3cc(F)c(-c4ccc(OCCCN5CCCCC5)nc4)cc3c21 [AZD1390] (first compound max 10 µM, 7x7, partner max 0.3 µM)
0.0

API: above_or_equal(metric=combination Emax, cutoff=0.6) for item COc1nnc2ccc(N3CCC(c4ccc(OCCN5CCN(C)C(=O)[C@H]5C)cc4)CC3)nn12 [AZD5153] + C[C@@H]1COCCN1C2=NC(=NC(=C2)C3(CC3)[S@](=N)(=O)C)C4=C5C=CNC5=NC=C4 [AZD6738] (first compound max 1 µM, 7x7, partner max 10 µM)
1.0

API: above_or_equal(metric=combination Emax, cutoff=0.6) for item C=CCn1c(=O)c2cnc(Nc3ccc(N4CCN(C)CC4)cc3)nc2n1-c1cccc(C(C)(C)O)n1 [AZD1775] + C[C@@H]1COCCN1C2=NC(=NC(=C2)C3(CC3)[S@](=N)(=O)C)C4=C5C=CNC5=NC=C4 [AZD6738] (first compound max 1 µM, partner max 10 µM)
1.0

API: above_or_equal(metric=combination Emax, cutoff=0.6) for item Cc1c2c(nn1C)CSCc1cc(n(C)n1)CSc1cc(c3ccccc3c1)OCCCc1c(C(=O)O)n(C)c3c-2c(Cl)ccc13 [AZD5991] + CCN(CCO)CCCOc1ccc2c(Nc3cc(CC(=O)Nc4cccc(F)c4)[nH]n3)ncnc2c1 [AZD2811] (first compound max 1 µM, 7x7, partner max 1 µM)
1.0

API: above_or_equal(metric=combination Emax, cutoff=0.6) for item CC(=O)c1c(C)c2cnc(Nc3ccc(N4CCNCC4)cn3)nc2n(C2CCCC2)c1=O [Palbociclib] + Cc1c2c(nn1C)CSCc1cc(n(C)n1)CSc1cc(c3ccccc3c1)OCCCc1c(C(=O)O)n(C)c3c-2c(Cl)ccc13 [AZD5991] (first compound max 10 µM, 7x7, partner max 1 µM)
0.0

API: above_or_equal(metric=combination Emax, cutoff=0.6) for item Cc1cc2ncnn2cc1Nc1ncc2c(n1)n(C1CCOCC1)c(=O)n2C [AZD7648] + C=CCn1c(=O)c2cnc(Nc3ccc(N4CCN(C)CC4)cc3)nc2n1-c1cccc(C(C)(C)O)n1 [AZD1775] (first compound max 10 µM, partner max 1 µM)
0.0

---

- Tested on: RO82-W-1 (Thyroid Gland Carcinoma)
- Assay text: Bliss excess, mean over the matrix (fraction); higher = more synergy
Measured property: Bliss excess
Answer with a number only.

These recorded examples may help you get a feel for the data.
[[record]]
compound = "COc1nnc2ccc(N3CCC(c4ccc(OCCN5CCN(C)C(=O)[C@H]5C)cc4)CC3)nn12 [AZD5153] + CCN(CCO)CCCOc1ccc2c(Nc3cc(CC(=O)Nc4cccc(F)c4)[nH]n3)ncnc2c1 [AZD2811] (first compound max 1 µM, 7x7, partner max 1 µM)"
measured_property = "Bliss excess"
measured_number = -0.0483

[[record]]
compound = "O=C(c1cc(Cc2n[nH]c(=O)c3ccccc23)ccc1F)N1CCN(C(=O)C2CC2)CC1 [Olaparib] + CN(CC[C@H](CSC1=CC=CC=C1)NC2=C(C=C(C=C2)S(=O)(=O)NC(=O)C3=CC=C(C=C3)N4CCC(CC4)[C@H](C5=CC=CC=C5C6=CC=C(C=C6)Cl)O)S(=O)(=O)C(F)(F)F)CCO [AZD4320] (first compound max 10 µM, 7x7, partner max 1 µM)"
measured_property = "Bliss excess"
measured_number = 0.0031

[[record]]
compound = "CN(C)CCCOc1ccc(-c2ccc3ncc4c(c3c2)n(C2CCOCC2)c(=O)n4C)cn1 [AZD0156] + C[C@@H]1COCCN1C2=NC(=NC(=C2)C3(CC3)[S@](=N)(=O)C)C4=C5C=CNC5=NC=C4 [AZD6738] (first compound max 1 µM, 7x7, partner max 10 µM)"
measured_property = "Bliss excess"
measured_number = -0.0649


Record COc1nnc2ccc(N3CCC(c4ccc(OCCN5CCN(C)C(=O)[C@H]5C)cc4)CC3)nn12 [AZD5153] + CC1(C)CCC(CN2CCN(c3ccc(C(=O)NS(=O)(=O)c4ccc(NCC5CCOCC5)c([N+](=O)[O-])c4)c(Oc4cnc5[nH]ccc5c4)c3)CC2)=C(c2ccc(Cl)cc2)C1 [Venetoclax] (first compound max 1 µM, 7x7, partner max 1 µM) . Reported Bliss excess: -0.0712

---

- System: TE-9 (Esophageal Squamous Cell Carcinoma)
- Assay text: Bliss excess, mean over the matrix (fraction); higher = more synergy
Measured property: Bliss excess
Answer with a number only.

[[record]]
molecule = "COc1cccc2c1C(=O)c1c(O)c3c(c(O)c1C2=O)C[C@@](O)(C(=O)CO)C[C@@H]3O[C@H]1C[C@H](N)[C@H](O)[C@H](C)O1 [Doxorubicin] + Cc1cc2ncnn2cc1Nc1ncc2c(n1)n(C1CCOCC1)c(=O)n2C [AZD7648] (first compound max 1 µM, 7x7, partner max 10 µM)"
measured_number = -0.0393

[[record]]
molecule = "O=C(c1cc(Cc2n[nH]c(=O)c3ccccc23)ccc1F)N1CCN(C(=O)C2CC2)CC1 [Olaparib] + Cc1c2c(nn1C)CSCc1cc(n(C)n1)CSc1cc(c3ccccc3c1)OCCCc1c(C(=O)O)n(C)c3c-2c(Cl)ccc13 [AZD5991] (first compound max 10 µM, 7x7, partner max 1 µM)"
measured_number = -0.0397

[[record]]
molecule = "CN(CCO)CC[C@H](CSc1ccccc1)Nc1ccc(S(=O)(=O)NC(=O)c2ccc(N3CCC([C@@H](O)c4ccccc4-c4ccc(Cl)cc4)CC3)cc2)cc1S(=O)(=O)C(F)(F)F [AZD4320] + Nc1ccn([C@@H]2O[C@H](CO)[C@@H](O)C2(F)F)c(=O)n1 [Gemcitabine] (first compound max 1 µM, 7x7, partner max 0.3 µM)"
measured_number = 0.0151


Record CC(=O)c1c(C)c2cnc(Nc3ccc(N4CCNCC4)cn3)nc2n(C2CCCC2)c1=O [Palbociclib] + CC1(C)CCC(CN2CCN(c3ccc(C(=O)NS(=O)(=O)c4ccc(NCC5CCOCC5)c([N+](=O)[O-])c4)c(Oc4cnc5[nH]ccc5c4)c3)CC2)=C(c2ccc(Cl)cc2)C1 [Venetoclax] (first compound max 10 µM, 7x7, partner max 1 µM) . Reported Bliss excess: -0.035

Record NC1(C(=O)N[C@@H](CCO)c2ccc(Cl)cc2)CCN(c2ncnc3[nH]ccc23)CC1 [Capivasertib] + CCN(CCO)CCCOc1ccc2c(Nc3cc(CC(=O)Nc4cccc(F)c4)[nH]n3)ncnc2c1 [AZD2811] (first compound max 10 µM, 7x7, partner max 1 µM) . Reported Bliss excess: -0.0124

Record NC1(C(=O)N[C@@H](CCO)c2ccc(Cl)cc2)CCN(c2ncnc3[nH]ccc23)CC1 [Capivasertib] + COc1nnc2ccc(N3CCC(c4ccc(OCCN5CCN(C)C(=O)[C@H]5C)cc4)CC3)nn12 [AZD5153] (first compound max 10 µM, 7x7, partner max 1 µM) . Reported Bliss excess: 0.0567
